Values from patent US20230277612A1

Tested on: human red blood cells
Experiment: cells
Format: cell-based
Conditions: Table A5, read-out: IC50 nM (hemolysis)

compound	IC50
CC1OC(OC2C(C)OC(OC(=O)[C@]34CCC(C)(C)CC3C3=CCC5[C@@]6(C)CC[C@H](OC7OC(C(=O)NC(C)(CO)CO)C(O)C(OC8OCC(O)C(O)C8O)C7OC7OC(CO)C(O)C(O)C7O)[C@@](C)(CO)C6CC[C@@]5(C)[C@]3(C)C[C@H]4O)C(OC3OC(C)C(OC4OCC(O)C(OC5OC(CO)C(O)C(O)C5O)C4O)C(O)C3O)C2O)C(O)C(OC2OCC(O)C(O)C2O)C1O (stereo partly shown)	> 1e+06 nM

* * *

Experiment: Critical micellar concentration (CMC) by ANS fluorescence
Type: physicochemical
property_name: CMC compared to corresponding underivatised saponin

compound	experimental_result
CC1OC(OC2C(C)OC(OC(=O)[C@]34CCC(C)(C)CC3C3=CCC5[C@@]6(C)CC[C@H](OC7OC(C(=O)O)C(O)C(OC8OCC(O)C(O)C8O)C7OC7OC(CO)C(O)C(O)C7O)[C@@](C)(CO)C6CC[C@@]5(C)[C@]3(C)C[C@H]4O)C(OC3OC(C)C(OC4OCC(O)C(OC5OC(CO)C(O)C(O)C5O)C4O)C(O)C3O)C2O)C(O)C(OC2OCC(O)C(O)C2O)C1O (some centres unmarked)	increased CMC
CC1OC(OC2C(C)OC(OC(=O)[C@]34CCC(C)(C)CC3C3=CCC5[C@@]6(C)CC[C@H](OC7OC(C(=O)O)C(O)C(OC8OCC(O)C(O)C8O)C7OC7OC(CO)C(O)C(O)C7O)[C@@](C)(C=O)C6CC[C@@]5(C)[C@]3(C)C[C@H]4O)C(OC3OC(C)C(OC4OCC(O)C(OC5OC(CO)C(O)C(O)C5O)C4O)C(O)C3O)C2O)C(O)C(OC2OCC(O)C(O)C2O)C1O (some centres unmarked)	increased CMC

* * *

Assay: Critical micellar concentration (CMC) by ANS fluorescence
Assay type: physicochemical
property_name: CMC compared to corresponding underivatised saponin

compound	experimental_result
CC(=O)OC1C(C)OC(OC2C(C)OC(OC(=O)C34CCC(C)(C)CC3C3=CCC5C6(C)CCC(OC7OC(C(=O)O)C(O)C(OC8OCC(O)C(O)C8O)C7OC7OC(CO)C(O)C(O)C7O)C(C)(C=NNC(=O)CCCCCN7C(=O)C=CC7=O)C6CCC5(C)C3(C)CC4O)C(OC3OC(C)C(OC4OCC(O)C(OC5OC(CO)C(O)C(O)C5O)C4O)C(O)C3O)C2O)C(O)C1OC1OCC(O)C(O)C1O (stereo not drawn)	increased CMC
CC1OC(OC2C(C)OC(OC(=O)C34CCC(C)(C)CC3C3=CCC5C6(C)CCC(OC7OC(C(=O)O)C(O)C(OC8OCC(O)C(O)C8O)C7OC7OC(CO)C(O)C(O)C7O)C(C)(C=NNC(=O)CCCCCN7C(=O)C=CC7=O)C6CCC5(C)C3(C)CC4O)C(OC3OC(C)C(OC4OCC(O)C(OC5OC(CO)C(O)C(O)C5O)C4O)C(O)C3O)C2O)C(O)C(OC2OCC(O)C(O)C2O)C1O (stereo not drawn)	increased CMC
CC(=O)OC1C(C)OC(OC2C(C)OC(OC(=O)[C@]34CCC(C)(C)CC3C3=CCC5[C@@]6(C)CC[C@H](OC7OC(C(=O)O)C(O)C(OC8OCC(O)C(O)C8O)C7OC7OC(CO)C(O)C(O)C7O)[C@@](C)(CO)C6CC[C@@]5(C)[C@]3(C)C[C@H]4O)C(OC3OC(C)C(OC4OCC(O)C(OC5OC(CO)C(O)C(O)C5O)C4O)C(O)C3O)C2O)C(O)C1OC1OCC(O)C(O)C1O (stereo partly drawn)	increased CMC
